# TARGET_OR_SYSTEM: T1, human ROR2 expressed on the cell surface (human, UniProt Q01974 34-943)
# T1 construct: Endogenous ROR2 of human tumour cell lines; also called cell surface ROR2; ROR2 on tumour cell lines
# T1 sequence (Q01974 34-943 limits assumed): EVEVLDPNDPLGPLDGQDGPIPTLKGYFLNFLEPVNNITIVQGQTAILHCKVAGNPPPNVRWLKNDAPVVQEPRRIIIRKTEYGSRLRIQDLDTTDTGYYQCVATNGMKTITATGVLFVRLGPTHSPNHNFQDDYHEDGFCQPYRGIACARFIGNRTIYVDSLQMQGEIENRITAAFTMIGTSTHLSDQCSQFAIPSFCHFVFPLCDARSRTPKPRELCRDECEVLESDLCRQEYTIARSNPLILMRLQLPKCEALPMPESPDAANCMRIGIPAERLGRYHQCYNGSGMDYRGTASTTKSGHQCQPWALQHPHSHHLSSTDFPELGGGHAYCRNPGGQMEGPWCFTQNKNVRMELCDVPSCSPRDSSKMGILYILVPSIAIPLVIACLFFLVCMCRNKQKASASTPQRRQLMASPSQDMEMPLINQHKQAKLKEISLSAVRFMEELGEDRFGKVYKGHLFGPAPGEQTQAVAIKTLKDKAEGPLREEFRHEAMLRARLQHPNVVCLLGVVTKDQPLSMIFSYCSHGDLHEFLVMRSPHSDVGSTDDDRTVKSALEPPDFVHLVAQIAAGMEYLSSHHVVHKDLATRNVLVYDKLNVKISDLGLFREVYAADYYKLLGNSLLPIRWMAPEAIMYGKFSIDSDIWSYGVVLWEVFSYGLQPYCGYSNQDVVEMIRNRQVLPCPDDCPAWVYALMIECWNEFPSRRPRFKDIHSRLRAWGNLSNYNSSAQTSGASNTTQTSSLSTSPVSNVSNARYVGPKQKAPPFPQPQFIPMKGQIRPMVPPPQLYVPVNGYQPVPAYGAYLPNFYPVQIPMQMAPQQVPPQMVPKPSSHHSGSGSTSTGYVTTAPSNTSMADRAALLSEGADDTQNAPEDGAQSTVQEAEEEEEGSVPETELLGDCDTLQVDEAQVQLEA
# PROTOCOL_DESCRIPTION: flow cytometry, COLO 205 cells (CRC)
# Design: unit not given here
# Protocol: Human tumour cell lines were authenticated using short tandem repeat (STR) analysis. They were cultured in RPMI1640 (Cellgro) supplemented with 10% fetal bovine serum (FBS, Life Technologies) at 37° C. in a 5% CO₂ humidified incubator. They were harvested, washed in PBS and reacted with ROR2-IgG at 1 ug/10⁶ tumour cells on ice for an hour. #901-IgG was used as a negative control at the same dose. […] Staining was analyzed on a FACSCalibur (BD Biosciences). […]
ASSAY_ENDPOINT: binding intensity

Input: Return value of binding intensity for input ROR2-27 full length human IgG1 antibody (antibody, V domains shown, also called clone #27; clone #027 IgG1) VH: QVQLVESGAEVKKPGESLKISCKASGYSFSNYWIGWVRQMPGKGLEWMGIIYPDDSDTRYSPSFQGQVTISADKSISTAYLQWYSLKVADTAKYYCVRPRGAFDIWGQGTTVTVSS VL: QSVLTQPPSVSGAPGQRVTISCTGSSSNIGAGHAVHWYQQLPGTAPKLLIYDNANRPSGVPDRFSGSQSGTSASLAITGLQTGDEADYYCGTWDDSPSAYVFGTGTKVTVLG , no commentary.
Output: 7
